All figures here come from patent US20110091971A1.

Tested on: H1 or H9 human embryonic stem cells
experimental protocol: Activin A bioassay: differentiation of human embryonic stem cells to definitive endoderm, cell number and SOX17 intensity by high content analysis (96-well, four days);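 also: Raw total cell count per well from high content imaging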
Format: cell-based
particulars: supernatant concentration 50x, assay dilution 1:20; assay plates #008, #009
metric: Cell Number average
// no unit, no text: just the number

Reference set, count: 5
{"molecule": "ACTN58: activin A variant peptide, SEQ ID 59 (protein) GLECDGKVNICCKKQSFGQTKDIGWNDWIIAPSGYHGGGCTGECPSHIAGTSGSSLSFHSTVINHYRMRGHSPWANLKSCCSPTKLRPMSMLYYDDGQNIIKKDIQNMKVEECGCT", "metric": "Cell Number average", "recorded result": 13214}
{"molecule": "ACTN93: activin A variant peptide, SEQ ID 94 (protein) GLECDGKVNICCKKQSFGQTKDIGWNDWIIAPSGYHGGGCTGECPSHIAGTSGSSLSFHSTVINHYRMRGHSPFANLKSCCSPTKLRPMSMLYYDDGQNIIKKDIQNMKVEECGCT", "metric": "Cell Number average", "recorded result": 15900}
{"molecule": "ACTN72: activin A variant peptide, SEQ ID 73 (protein) GLECDGKVNICCKKQLFGQAKDIGWNDWIIAPSGYHGGSCTGECPSHIAGTSGSSLSFHSTVINHYRMRGHSPNANLKSCCSPTKLRPMSMLYYDDGQNIIKKDIQNMVVEECGCT", "metric": "Cell Number average", "recorded result": 16810}
{"molecule": "ACTN25: activin A variant peptide, SEQ ID 26 (protein) GLECDGKVNLCCKKQNFVSFKDIGWNDWIIAPSGYHANECSGLCPSHIAGTSGSSLSFHSTVINHYRMRGHSPFSQMGSCCIPTKLRPMSMLYYDDGQNIIKKDIQNMIVEECGCS", "metric": "Cell Number average", "recorded result": 4620}
{"molecule": "ACTN78: activin A variant peptide, SEQ ID 79 (protein) GLECDGKVNICCKKQLFGQAKDIGWNDWIIAPSGYHGGGCSGECPSHIAGTSGSSLSFHSTVINHYRMRGHSPVANLKSCCSPTKLRPMSMLYYDDGQNIIKKDIQNMVVEECGCT", "metric": "Cell Number average", "recorded result": 16301}

Asked: # input molecule: ACTN73: activin A variant peptide, SEQ ID 74 (protein) GLECDGKVNICCKKQSFGQAKDIGWNDWIIAPSGYHGGGCSGECPSHIAGTSGSSLSFHSTVINHYRMRGHSPFANLKSCCSPTKLRPMSMLYYDDGQNIIKKDIQGMVVEECGCT ; wanted: its Cell Number average
Given back: 16351

Asked: Can you share its Cell Number average? I mean this molecule: ACTN34: activin A variant peptide, SEQ ID 35 (protein) GLECDGKVNYCCKKQLFVSFKDIGWNDWIIAPSGYHANHCTGKCPSHIAGTSGSSLSFHSTVINHYRMRGHSPFSDLGSCCVPTKLRPMSMLYYDDGQNIIKKDIQNMIVEECGCS
Given back: 12163

Asked: Please look up its Cell Number average: ACTN80: activin A variant peptide, SEQ ID 81 (protein) GLECDGKVNICCKKQSFGQTKDIGWNDWIIAPSGYHGGGCSGECPSHIAGTSGSSLSFHSTVINHYRMRGHSPWANLKSCCAPTKLRPMSMLYYDDGQNIIKKDIQNMKVEECGCV
Given back: 14686

Asked: Request the reported Cell Number average associated with ACTN33: activin A variant peptide, SEQ ID 34 (protein) GLECDGKVNLCCKKQNFVSFKDIGWNDWIIAPSGYHANECMGKCPSHIAGTSGSSLSFHSTVINHYRMRGHSPFSDMGACCIPTKLRPMSMLYYDDGQNIIKKDIQNMIVEECGCS
Given back: 3383

Asked: So what does the record say about Cell Number average for ACTN68: activin A variant peptide, SEQ ID 69 (protein) GLECDGKVNICCKKQSFGKAKDIGWNDWIIAPSGYHGGGCTGECPSHIAGTSGSSLSFHSTVINHYRMRGHSPFANLKSCCSPTKLRPMSMLYYDDGQNIIKKDIQGMKVEECGCT ?
Given back: 15926

Asked: Look up Cell Number average for this molecule: ACTN26: activin A variant peptide, SEQ ID 27 (protein) GLECDGKVNLCCKKQHFVSFKDIGWNDWIIAPSGYHANRCDGKCPSHIAGTSGSSLSFHSTVINHYRMRGHSPFANMGACCIPTKLRPMSMLYYDDGQNIIKKDIQNMIVEECGCS
Given back: 5043
